- study.system: hS1P1/CHO cells (Homo sapiens (Human), UniProt P21453)
- Sequence (P21453 whole entry): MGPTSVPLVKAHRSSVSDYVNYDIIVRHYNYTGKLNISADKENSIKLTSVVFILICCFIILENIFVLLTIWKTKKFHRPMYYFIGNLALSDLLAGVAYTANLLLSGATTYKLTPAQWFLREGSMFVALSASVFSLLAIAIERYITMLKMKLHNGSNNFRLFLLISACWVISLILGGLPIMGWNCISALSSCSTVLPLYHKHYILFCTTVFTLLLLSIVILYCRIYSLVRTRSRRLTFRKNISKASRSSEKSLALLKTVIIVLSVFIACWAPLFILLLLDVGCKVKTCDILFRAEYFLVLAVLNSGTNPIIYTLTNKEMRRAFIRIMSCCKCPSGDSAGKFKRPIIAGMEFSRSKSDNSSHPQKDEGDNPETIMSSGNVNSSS
- measurement.protocol: hS1P1 ERK phosphorylation (S1P1 pERK)
- condition.label: phosphate examples
property.measured: EC50

State the recorded EC50 for this entry: C#CCCOCCO[C@H]1CCc2cc([C@@H]3CC[C@@](N)(COP(=O)(O)O)C3)ccc2C1 < 10 nM

State the recorded EC50 for this entry: CCCSCC[C@@H]1CCc2cc([C@H]3CC[C@](N)(COP(=O)(O)O)C3)ccc2C1 < 10 nM

State the recorded EC50 for this entry: CCC=CCOC[C@@H]1CCc2cc([C@H]3CC[C@](N)(COP(=O)(O)O)C3)ccc2C1 < 10 nM

State the recorded EC50 for this entry: COc1ccc(C[C@@H]2CCc3cc([C@H]4CC[C@](N)(COP(=O)(O)O)C4)ccc3C2)cc1F 10 to 100 nM

State the recorded EC50 for this entry: CCCC/C=C/[C@@H]1CCc2cc([C@H]3CC[C@](N)(COP(=O)(O)O)C3)ccc2C1 [compound 636] 10 to 100 nM

State the recorded EC50 for this entry: N[C@]1(COP(=O)(O)O)CC[C@H](c2ccc3c(c2)CC[C@@H](COCc2ccc(C(F)(F)F)s2)C3)C1 10 to 100 nM

State the recorded EC50 for this entry: CCCCCCCCCCOC[C@H]1CCc2cc([C@H]3CC[C@](N)(COP(=O)(O)O)C3)ccc2C1 10 to 100 nM

State the recorded EC50 for this entry: Cc1cc(COC[C@@H]2CCc3cc([C@H]4CC[C@](N)(COP(=O)(O)O)C4)ccc3C2)sc1C < 10 nM

State the recorded EC50 for this entry: CCCCCCC1CCc2cc([C@@H]3CC[C@](N)(COP(=O)(O)O)C3)ccc2O1 (stereo partly drawn) 1000 to 10000 nM

State the recorded EC50 for this entry: N[C@]1(COP(=O)(O)O)CC[C@H](c2ccc3c(c2)CC[C@H](CSCCc2cnccn2)C3)C1 < 10 nM

State the recorded EC50 for this entry: CC/C=C/CC[C@@H]1CCc2cc([C@H]3CC[C@](N)(COP(=O)(O)O)C3)ccc2C1 10 to 100 nM

State the recorded EC50 for this entry: CC/C=C\CC[C@@H]1CCc2cc([C@H]3CC[C@](N)(COP(=O)(O)O)C3)ccc2C1 10 to 100 nM

State the recorded EC50 for this entry: C/C=C/CCCC[C@H]1CCc2cc([C@H]3CC[C@](N)(COP(=O)(O)O)C3)ccc2C1 10 to 100 nM

State the recorded EC50 for this entry: CCCCC=C[C@H]1CCc2cc([C@H]3CC[C@](N)(COP(=O)(O)O)C3)ccc2C1 [compound 649] 10 to 100 nM

State the recorded EC50 for this entry: CC(C)(C)CSC[C@H]1CCc2cc([C@H]3CC[C@](N)(COP(=O)(O)O)C3)ccc2C1 10 to 100 nM

State the recorded EC50 for this entry: N[C@]1(COP(=O)(O)O)CC[C@H](c2ccc3c(c2)CC[C@H](Cc2ccccc2)C3)C1 10 to 100 nM

State the recorded EC50 for this entry: CCOCC[C@@H]1CCc2cc([C@H]3CC[C@](N)(COP(=O)(O)O)C3)ccc2C1 < 10 nM

State the recorded EC50 for this entry: CCCCC1CCCC2(CCc3cc([C@H]4CC[C@](N)(COP(=O)(O)O)C4)ccc3C2)O1 (stereo partly drawn) 100 to 1000 nM

State the recorded EC50 for this entry: CC(C)c1cccc(OC[C@@H]2CCc3cc([C@H]4CC[C@](N)(COP(=O)(O)O)C4)ccc3C2)c1 10 to 100 nM

State the recorded EC50 for this entry: N[C@]1(COP(=O)(O)O)CC[C@H](c2ccc3c(c2)CC[C@@H](CSCCc2ccncc2)C3)C1 < 10 nM

State the recorded EC50 for this entry: N[C@]1(COP(=O)(O)O)CC[C@H](c2ccc3c(c2)CC[C@@H](CCCC2CCOCC2)C3)C1 10 to 100 nM

State the recorded EC50 for this entry: CCCCC[C@@H]1CCc2cc([C@@H]3CC[C@@](N)(COP(=O)(O)O)C3)ccc2C1 < 10 nM

State the recorded EC50 for this entry: CCCCNC(=O)OC1CCc2cc([C@H]3CC[C@@](N)(COP(=O)(O)O)C3)ccc2C1 (stereo partly drawn) 10 to 100 nM

State the recorded EC50 for this entry: N[C@]1(COP(=O)(O)O)CC[C@H](c2ccc3c(c2)CC[C@H](c2ccccc2)C3)C1 < 10 nM

State the recorded EC50 for this entry: Cc1cccc(C)c1SC[C@@H]1CCc2cc([C@H]3CC[C@](N)(COP(=O)(O)O)C3)ccc2C1 10 to 100 nM

State the recorded EC50 for this entry: CCCC/C=C/[C@@H]1CCc2cc([C@H]3CC[C@](N)(COP(=O)(O)O)C3)ccc2C1 [compound 637] 10 to 100 nM

State the recorded EC50 for this entry: N[C@@]1(COP(=O)(O)O)CC[C@@H](c2ccc3c(c2)CC[C@H](CCc2ccc4ccccc4n2)C3)C1 (single isomer, unassigned) 10 to 100 nM

State the recorded EC50 for this entry: COCCCOC[C@@H]1CCc2cc([C@H]3CC[C@](N)(COP(=O)(O)O)C3)ccc2C1 < 10 nM

State the recorded EC50 for this entry: CCCCCCC[C@H]1Cc2ccc([C@H]3CC[C@](N)(COP(=O)(O)O)C3)cc2CO1 10 to 100 nM

State the recorded EC50 for this entry: COC(C)CCCCC1CCc2cc([C@H]3CC[C@](N)(COP(=O)(O)O)C3)ccc2C1 (single isomer, unassigned) < 10 nM
